Reported apparent KD of MS2 coat protein values for a set of sequences
Test system: MS2 coat protein
Experiment: apparent KD of MS2 coat protein; designed switch direction (-1 OFF switch, 1 ON switch): -1; higher = weaker reporter binding
Conditions: input ligand: FMN 200 uM
Just the number please, in nM, no unit attached.

{"residueCodes": "ACAUUGAUUGUGAGGAUAUCGAUGUGAUGGUAUGUCGAGAAGGCACAUGAGGAUCACCCAUGUGGGUUGUAGCA [JR_BMEx4_Sub035] (Eterna round: R97, puzzle: Brourd's mod of Exclusion 4)", "apparent KD of MS2 coat protein [nM]": 291}
{"residueCodes": "UUAAUUCGGAUUCUUGAAAUACAUGAGGAUCACCCAUGUUCACAGGAUAUUGAUUAUGUUAGUAACAAGAAGGGUGUAACAUAU [JR_ExcNG3_Sub036] (Eterna round: R96, puzzle: Exclusion NG 3)", "apparent KD of MS2 coat protein [nM]": 87.1}
{"residueCodes": "CUGAGGUAGCGGUCCUAUGACAUGAGGAUCACCCAUGUACCUUGCUUUGAGCUAUUUGCUCGUCUUAUGAUUCUCGG [Mat - Sensor v3 - turn-off var 1 - JL Mod - D40] (Eterna round: R96, puzzle: Sensor v3, turn-off variant 1)", "apparent KD of MS2 coat protein [nM]": 788}

# return recorded apparent KD of MS2 coat protein for input UCAGGUCGGUAGGAUAUCGACGGGAAAAUCCCACGAGAAGGACUGACAUGAGGAUCACCCAUGUGAGCGUAACC [EX6 B.11] (Eterna round: R97, puzzle: Exclusion 6)
149
